The following compounds are shown together with reported TGI values.
System: HCC-2998 colon
Experiment: NCI tumour cell line growth inhibition, 48 h

[
  {
    "COMPOUND": "CC(=Nc1cc(Cl)cc(Cl)c1)c1ccncc1",
    "TGI": "> 100 µM"
  },
  {
    "COMPOUND": "COC(=O)/C=C1\\C(=O)C=C2[C@@H]3C[C@H]4C[C@H](CC[C@@]4(C)N21)C3(C)NC(C)=O (some centres undefined)",
    "TGI": "> 64.9 µM"
  },
  {
    "COMPOUND": "COc1cccc(NC(=O)CC(=O)N2N=C(C)C(N=Nc3ccc(C(=O)O)cc3)C2=O)c1 (centres undefined)",
    "TGI": "> 100 µM"
  },
  {
    "COMPOUND": "COC(=O)[C@H]1[C@H]2C[C@@H]3c4[nH]c5cc(OC)ccc5c4CCN3C[C@H]2C[C@@H](OC(=O)/C=C/c2cc(OC)c(OC)c(OC)c2)[C@@H]1OC",
    "TGI": "> 100 µM"
  }
]

Data credit: PubChem BioAssay (NCI)
